- assay-details: soluble on expression in E. coli; label from the status in PepcDB or PDB records
measurement-name: soluble on expression in E. coli

>>> obs_value("MGSSHHHHHHSQDPNSLEVLFQGPMAGGRDRGDLAARQLVFLLPEHLKDASKKKKKSSLLFVKLANPHSGEGATYLIDMCLQQLFEIKVFKEKHHSWFINQSVQSGGLLHFATPMDPLFLLLHYLLKAGKEGKYQPLDQVVVDDTFPDCTLLLRFPELEKSLRHVTEEKEVNSKKYYKYSSEKTLKWLEKKVNQTVVALKANNVNVGARVQSSAYFSGGQVSRDKEEDYVRYAHGLISDYIPKELSDDLSKFLKLPEPPASLPNPPSKKLKLSDEPVEAKEDYTKFNTKDLKTGKKNSKMTAAQKALAKVDKSGMKSIDAFFGAKNKKTGKI")
"soluble"
>>> obs_value("DLRRQLRKAVMDHVSDSFLETNVPLLVLIEAAKNGNEKEVKEYAQVFREHANKLIEVANLACSISNNEEGVKLVRMSASQLEALCPQVINAALALAAKPQSKLAQENMDLFKEQWEKQVRVLTDAVDDITSIDDFLAVSENHILEDVNKCVIALQEKDVDGLDRTAGAIRGRAARVIHVVTSEMDNYEPGVYTEKVLEATKLLSNTVMPRFTEQVEAAVEALSSDPAQPMDENEFIDASRLVYDGIRDIRKAVLMI")
"soluble"
>>> obs_value("MRLNHKQGTAGEDAALAFLQSQGCTLLARNWHCAYGEIDLIVKNGGMILFVEVKYRKNQRFGGAAYSISPSKLLKLQRSVEYYLQQNRLTNVPCRLDAVLIEGNRPPEWIKNITG")
"soluble"
>>> obs_value("STARVICAGFGGQGVMSMGQLLTYAGMLEGKEVSWLPSYGPEMRGGTANCAVTVSNEPVGSPLITDDATAAILLNIPAFEKFKDDVIPGGKIIVNSSLIKEKVDRTDVDVYYIPANELAAELGNDKVANMIMLGAYLKVSDTVDIESVLEAFKKVFGPRKEKFVPLNREALQKGMDATC")
"not soluble"
>>> obs_value("MKLIILEHYSQASEWAAKYIRNRIIQFNPGPEKYFTLGLPTGSTPLGCYKKLIEYYKNGDLSFKYVKTFNMDEYVGLPRDHPESYHSFMWNNFFKHIDIHPENTHILDGNAVDLQAECDAFEEKIKAAGGIELFVGGIGPDGHIAFNEPGSSLVSRTRVKTLAMDTILANARFFDGELTKVPTMALTVGVGTVMDAREVMILITGAHKAFALYKAIEEGVNHMWTVSAFQQHPRTVFVCDEDATLELKVKTVKYFKGLMLVHNKLVDPLYSIKEKETEKSQSSKKPYSD")
"soluble"

query: Any idea what soluble on expression in E. coli was measured for MGSDKIHHHHHHMNFQQCRYVEAIANTGSFSEAAKKLYVTQPNLSSSIKELENDLGVQLFIRSNTGARLTDDGYDFLKYAKRILGEADLLKKRYQDNYKKSFTISSHHYDFLAIPLLEIAEKFKKDFQHFHLIETTTKKILESVLNFESDLGILYLNDDNRHILERYFKQHDLAFTPLGDFPTRIFLRKDHPLAQQKVIEKVQLKDYKQVRFRQEISGLNFDEDTLDIPENQSVFYSNDRGTIMNILCGSDAYASGLGIVNSFIKDQIVLIPLKDSKMHTLGFVSNKRKQETDITQQFITAVKNSLRTYERGTQL ?
result: not soluble

* * *

- assay-details: soluble on expression in E. coli; label from the status in PepcDB or PDB records
measurement-name: soluble on expression in E. coli

>>> obs_value("DTTERKRREKRLEETSSRLEALFENSPDMIDVLDADGTICEVNQRFCAELGYDESEVLGRSIWEFDLMFDAEDVQTQLSGFSVDERRKFEGLYERRDGSTMSVEVHLLRFNLEGEDRFLAISRD")
"soluble"
>>> obs_value("MGCFFSKRRKADKESRPENEEERPKQYSWDQREKVDPKDYMFSGLKDETVGRLPGTVAGQQFLIQDCENCNIYIFDHSATVTIDDCTNCIIFLGPVKGSVFFRNCRDCKCTLACQQFRVRDCRKLEVFLCCATQPIIESSSNIKFGCFQWYYPELAFQFKDAGLSIFDNTWSNIHDFTPVSGELNWSLLPEDAVVQDYVPIPTTEELKAVRVSTEANRSIVPISRGQRQKSSDESCLVVLFAGDYTIANARKLIDEMVGKGFFLVQTKEVSMKAEDAQRVFREKAPDFLPLLNKGPVIALEFNGDGAVEVCQLIVNEIFNGTKMFVSESKETASGDVDSFYNFADIQMGILEHHHHHH")
"soluble"
>>> obs_value("MTPKRALISLTSYHGPFYKDGAKTGVFVVEILRSFDTFEKHGFEVDFVSETGGFGWDEHYLPKSFIGGEDKMNFETKNSAFNKALARIKTANEVNASDYKVFFASAGHGALFDYPKAKNLQDIASKIYANGGVIAAICHGPLLFDGLIDIKTTRPLIEGKAITGFPLEGEIALGVDDILRSRKLTTVERVANKNGAKYLAPIHPWDDYSITDGKLVTGVNANSSYSTTIRAINALYSVEHHHHH")
"soluble"

* * *

- assay-details: soluble on expression in E. coli; label from the status in PepcDB or PDB records
measurement-name: soluble on expression in E. coli

>>> obs_value("MSLSTELDFEKPIRDLKGKIEELRTFTEEKEIDLSDEIEKLEKRLHALEENIYGNLKPWQRVQIARHGERPTTLDYIEQLFSDFLEMHGDRLYGDDEAIVAGIAKYKGQPVTVIGHQRGKDTKENIRRNFGMPHPEGYRKALRLMKQAEKFHRPVICFIDTKGAYPGKAAEERGQSEAIARNLLEMAGLKVPIVCIVIGEGGSGGALALGVGDRIHMLENSTYSVISPEGAAALLWKDASQAQRAAETMKITAPDLKELQIIDDIIPEVRGGAHRNVAEQAEAIDQVLEKSLKQLSSLTTEELLNKRYEKYKKIGEFSHVNDAISVNEGHHHHHH")
"soluble"
>>> obs_value("VAERNSLAKTVYAIFVPLREGESQIAAEITPMRSERFGVDVLPGHPALSQIEDLMSDSWQSALGRQTGPFRRIHWAGQLAHAMERDDRYDVIFFDVGPSLGPFNRTVLLGCDAFVTPTATDLFSFHAFGNLARWFDAWVTQYAEIHEGNMAEWKKYSADVEAKTRPLRLGGFDGEGLRYLGYTTLEYVKRRANGQEQLVGAFERFRGRFAAEAERISNSLSKHSNSTLLGHVPHMHSMPATAQDVHAPIMELSSSDRVRGAQINQRNAYAEKINSVAANVYKALFPNE")
"not soluble"
>>> obs_value("MGSDKIHHHHHHAYFFNVAFVPGQKSVLNKYSSKKKKDPFAQNKKWYADAKKEQWYIKSASSNYCLDANYIPKKNSHKTAVLLHGFMNNKDTMAPYAAMFHQLGYNVLIPDARAHGKSQGKYIGYGWPEKYDVQKWVKKDIAEKGKKQKIVIFGVSMGGATTMMTSGLKMPKQVKAYIEDCGYTDVKSEFLYEAKDIYKMPKLVASSAVAILSGVSKANLGFYLGDASAVNQLKKNKLPMMFIHGSKDNFVPTKMVYQNYKATNGPKELWIAEKAAHARSFETYPREYKARVSKFLNKYV")
"not soluble"
>>> obs_value("MGVPFIRFLNITFDRRGDELTGVLNFDDKLIGNPFLPAIHGGVTAAFLEVTAVITLSWAHLFERIESGDLAPEDILTDENMRFPKTIDFTIDYLRSGLPRDAYARAYISRAGRRYASVRVEAWQDHHDKLYAQGTGHFLMPLEHHHHHH")
"soluble"
>>> obs_value("MSLDLSLNNLYSISTVELIQAFANTPASVTSLNLSGNSLGFKNSDELVQILAAIPANVTSLNLSGNFLSYKSSDELVKTLAAIPFTITVLDLGWNDFSSKSSSEFKQAFSNLPASITSLNLRGNDLGIKSSDELIQILAAIPANVNSLNLRGNNLASKNCAELAKFLASIPASVTSLDLSANLLGLKLEHHHHHH")
"not soluble"

For each listed entry, give its soluble on expression in E. coli.
1. MGENYKFFNHKDCEFFPCHKTNKPEEFNCLFCYCPLYALGENCGGNFKYTDKGIKDCSSCILPHKKDNYNYIMSKFQDLVKITSKKLEHHHHHH
2. MSLTAHRIGFLVWPGTKAMTLALAEEALRVAQRVHPEVVYELSFLQAELAEPAAVAGGWQLPGEPWTGRLEGLQKLFLLADEPPAAVAPALGSALKQLVRAGCSIGGLSAGVYPLAQLGLLDGYRAAVHWRWQDDFAERFPKVIATSHLFDWDRDRLTACGGMSVLDLLLAVLSRDHGAELAGAVSEELVVERIREGGERQRIPLQNRLGSSHPKLTQAVLLMEANIEEPLTTDEIAQHVCVSRRQLERIFKQYLNRVPSQYYLELRLNKARQMLMQTSKSIIQIGLSCGFSSGPHFSSAYRNFFGATPREDRNQRRSSSPFELSPVPAKGIITITTDPNSSSVDKLAAALEHHHHHH
3. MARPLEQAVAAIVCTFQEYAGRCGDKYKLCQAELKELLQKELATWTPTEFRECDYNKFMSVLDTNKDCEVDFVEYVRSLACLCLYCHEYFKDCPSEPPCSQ
4. GPGSMDVSKRPREELHKEQCLSFVKKLWAADTLAMFHYPVSATEVPGYYDVVETPMDLSTIRKNIEQGTYRTDAEVENDVVLMLSNALDFNEKGSQWHDLAKQFKKQYLTLARESGLSFDADQAFIPTKKVRDDESTLRKAEKKGEEKLEDVLQAMEKDKEIPLEQLRAMYARRTTRGKADQQSSDFSSGRGNDDSDEVVSSDEEDTSDSGSGSYDTEEDEDSLDSESASKDDDDDK
5. AWVDQTPRTATKETGESLTINCVLRDASFELKDTGWYRTKLGSTNEQSISIGGRYVETVNKGSKSFSLRISDLRVEDSGTYKCQAFYSLLLRDYNYSLLFRGEKGAGTALTVKAAA
6. MYRIGELAKMAEVTPDTIRYYEKQQMMEHEVRTEGGFRLYTESDLQRLKFIRHARQLGFSLESIRELLSIRIDPEHHTCQESKGIVQERLQEVEARIAELQSMQRSLQRLNDACCGTAHSSVYCSILEALEQGASGVKSGC
7. MSLDNIERTLGQLFEGRDFEKEYQGLKQQVLHYQPIQDFFKEHKEEVTEQLVNQNLSNLYEFMTQHKKFTEQEETLMPGYAPKLVLNGEFITVTYYPTKEKIEEDKRRAVERRIRSLYMPKQVVDANLADFYTDEESRQLALVEAYQFLNNYPPKSGERVKGLFIHGSFGTGKSYLLGALAKELALKGISSTLVYLPEFMREVKQSISDNTVGEKIQFAKETEVLMLDDIGAESMTAWTRDEVLGAILQFRMQEELPTFFSSNYNMDQLENHLMFAQNGTEEKLKARRIMERVRYLSKEVNLEGEGHHHHHH

result:
not soluble
soluble
soluble
soluble
soluble
not soluble
soluble

query: Any idea what soluble on expression in E. coli was measured for AFMQDRLKIMRQQNPAASLQHQWVDYEQISSHLKRAVIAAEDARFLQHQGFDYKAIETAWKKNLKQRKWAAGGSTISQQLAKNLFLSTEKTVWRKSRETLITLMLEEFLTKRRILEIYLNIIEWGDGIFGIEAAARHYFGISAASLTPAQAAWLASIIPNPRFYDTRRTLPKLLNKSRIILSRLPAAKIP ?
result: not soluble
